# Lookup of reported cytotoxicity at 70.5 h keyed by entry
Protocol text: Human HepG2 cell viability assay in 384 well format
Type: toxicity, cell-based
Parameters: dose 125 nL, time 70.5 hour; concentration not given beside the values
Assay conditions: HepG2 cells, read-out: Inhibition
Reply with the number, then its unit.

# count of solved cases: 5
Molecule	Result
Cc1nn(C)c(C)c1CCC(=O)N(C)Cc1ccc2nsnc2c1	-4.18%
CCn1nc(C)cc1NC(=O)CCn1nc(C)c2ccccc21	-10.1%
COC(=O)c1ccoc1CN(C)Cc1ccccc1	-0.994%
COC(=O)[C@H](CCSC)NC(=O)Cn1ccc2c(Cl)cccc21	-17.2%
CN(C)c1ncc(-c2ccncc2)c(CCNC(=O)C2CC2)n1	-5.57%

Input line: Which cytotoxicity at 70.5 h reading was recorded for the molecule CCC(=O)CNC(=O)CCn1nc2ccccn2c1=O ?
Output line: -1.88%

Input line: Moving on to the next molecule: O=C(c1ccc2c(c1)OCO2)N1C[C@H](OCC2CC2)[C@H]2COC[C@H]21
Output line: -8.17%

Input line: Moving on to the next molecule: COCc1cncc2c1CCN(Cc1cnn(C)c1)C2
Output line: 10.6%

Input line: Moving on to the next molecule: Cc1ccc(C(=O)N2CCOCC3(CCN(C4CCOCC4)C3)C2)o1 (centres undefined)
Output line: -13.2%

Input line: Moving on to the next molecule: CCn1cc(C(=O)NCCc2nc(-c3ccc(C)cc3)n[nH]2)c(C)n1
Output line: -4.26%

====

Protocol text: Human HepG2 cell viability assay in 384 well format
Assay type: toxicity, cell-based
Parameters: dose 125 nL, time 70.5 hour; concentration not given beside the values
Assay conditions: HepG2 cells, read-out: Inhibition
# Lookup of reported cytotoxicity at 70.5 h keyed by entry
Numeric answer only, unit % assumed.

# count of solved cases: 5
Molecule	Result type	Recorded number
c1cc(CNCc2ccc3c(c2)CCO3)cc(N2CCOCC2)n1	cytotoxicity at 70.5 h	-9.64
O=C(C1CCOC1)N1CCc2ncnc(C3CC3)c2CC1 (configuration not stated)	cytotoxicity at 70.5 h	0.686
COc1ccc(CN(C)C(=O)NCc2c(C)cc(C)nc2OC)cc1	cytotoxicity at 70.5 h	-5.78
Cc1ccc2c(c1)C1(CCNCC1)CN2C(=O)C(C)C	cytotoxicity at 70.5 h	18.3
COc1cccc(C(CO)NC(=O)Cc2ccc(F)c(Br)c2)c1 (configuration not stated)	cytotoxicity at 70.5 h	-3.64

Input line: Which cytotoxicity at 70.5 h reading was recorded for the molecule Cc1nonc1C1CCCN1C(=O)CCc1cc2n(n1)CCCNC2 (configuration not stated) ?
Output line: -7.72

Input line: Moving on to the next molecule: CCc1nc(CN2CCCN(c3ncnc4sccc34)CC2)no1
Output line: 16.3

Input line: Moving on to the next molecule: O=C(c1ccc(C2CCCO2)s1)N1Cc2ccccc2C1 (configuration not stated)
Output line: 0.527

Input line: Moving on to the next molecule: Cc1csc(N2CCN(CC(=O)N3CCNC3=O)CC2C)n1 (configuration not stated)
Output line: 12

Input line: Moving on to the next molecule: Cc1cc(OCc2ccc(C(=O)O)s2)ccc1Cl
Output line: -0.232

Input line: Moving on to the next molecule: Cc1nc(C)n(CC2CCCN2CCC(=O)N2CCCCC2)n1 (configuration not stated)
Output line: -5.35

Input line: Moving on to the next molecule: CCOC1COC2(CCN(Cc3cccc(C)n3)CC2)C1 (configuration not stated)
Output line: 0.953

====

# Lookup of reported cytotoxicity at 70.5 h keyed by entry
Protocol text: Human HepG2 cell viability assay in 384 well format
Type: toxicity, cell-based
Design: dose 125 nL, time 70.5 hour; concentration not given beside the values
Assay conditions: HepG2 cells, read-out: Inhibition
Numeric answer only, unit % assumed.

Molecule	Unit text	cytotoxicity at 70.5 h
CC(Cn1ccnc1)NC(=O)N1CCN(Cc2cccnc2)CC1 (stereo unspecified)	%	0.583
Cc1cc(NC(=O)NCC(c2ccc(C)o2)N2CCOCC2)n(C)n1 (stereo unspecified)	%	21
Cn1nc(Cn2ccnc2)c2c1CN(c1ncccn1)C2	%	-4.86

Input line: Which cytotoxicity at 70.5 h reading was recorded for the molecule CCOc1ccc(Cl)c(C(=O)NCCc2ncc[nH]2)n1 ?
Output line: -3.13

Input line: Moving on to the next molecule: Cc1n[nH]c(C)c1CCC(=O)NC1CCCN(c2ccccc2F)C1 (stereo unspecified)
Output line: 6.82

Input line: Moving on to the next molecule: CCCS(=O)(=O)N1C[C@@H]2CC[C@H](C1)N(Cc1cscn1)C2=O
Output line: -9.73

Input line: Moving on to the next molecule: c1cc(CN2CCC(c3ccncc3)CC2)cc(Cn2cccn2)c1
Output line: -1.99

Input line: Moving on to the next molecule: CC(C)CCN1CCNC(=O)C1CC(=O)N1CCc2sccc2C1 (stereo unspecified)
Output line: -7.67

====

Protocol text: Human HepG2 cell viability assay in 384 well format
Type: toxicity, cell-based
Design: dose 125 nL, time 70.5 hour; concentration not given beside the values
Assay conditions: HepG2 cells, read-out: Inhibition
Result type: cytotoxicity at 70.5 h (%)
Numeric answer only, unit % assumed.

Compound	Unit text	cytotoxicity at 70.5 h
CC(=O)c1cccc(CN2CC(Oc3ccccc3C)C2)c1	%	-3.39
Cc1nc(C)c(CC(=O)NCc2ccccc2F)s1	%	-11.1

Shifting focus to the compound that follows.
Input line: Which cytotoxicity at 70.5 h reading was recorded for the compound COCCC(=O)N1CC[C@@H](N2CCOCC2)[C@@H]1Cc1ccccc1 ?
Output line: -8.94

====

Protocol text: Human HepG2 cell viability assay in 384 well format
Format: toxicity, cell-based
Set-up: dose 125 nL, time 70.5 hour; concentration not given beside the values
Assay conditions: HepG2 cells, read-out: Inhibition
Result type: cytotoxicity at 70.5 h (%)
Numeric answer only, unit % assumed.

# count of solved cases: 5
Molecule	Recorded number
CN(C)c1nc(N)nc(CN2CCCC(c3ccccc3)CC2)n1 (stereo unspecified)	-3.13
COc1cc(C)nc(N2CCN(Cc3nccn3C)CC2)n1	0.0501
CCN1CC2(CC1=O)CN(C(=O)COC)CCN(S(C)(=O)=O)C2 (stereo unspecified)	-11
Cc1cc(NC(=O)COC(=O)c2ccc(F)cc2Br)n(C)n1	-12.3
Cc1cc(CNC(=O)NCCOc2ccc(F)c(F)c2)on1	-6.89

Shifting focus to the molecule that follows.
Input line: Which cytotoxicity at 70.5 h reading was recorded for the molecule O=C(c1cnccn1)N1C[C@@H]2CN(Cc3cccnc3)CCO[C@@H]2C1 ?
Output line: 18.1

====

Protocol text: Human HepG2 cell viability assay in 384 well format
Format: toxicity, cell-based
Set-up: dose 125 nL, time 70.5 hour; concentration not given beside the values
Assay conditions: HepG2 cells, read-out: Inhibition
Result type: cytotoxicity at 70.5 h (%)
Numeric answer only, unit % assumed.

# count of solved cases: 5
Compound	cytotoxicity at 70.5 h (%)
Cc1nc(C)n(CCNC(=O)C2(C)CC(c3ccccc3)=NO2)n1 (stereo not drawn)	1.37
Cc1noc(CCNC(=O)NCc2ccc(N3CCCCC3)cc2)n1	-5.09
O=S1(=O)COCCN1CCOc1ccccc1	17.3
CCOc1ncccc1NC(=O)NC1CCN(c2ncccn2)CC1	2.59
CC(=O)N1CCN(C(=O)c2cc(C(C)C)no2)[C@H]2CS(=O)(=O)C[C@H]21	-3.64

Shifting focus to the compound that follows.
Input line: Which cytotoxicity at 70.5 h reading was recorded for the compound CC(Cc1c(F)cccc1F)NC(=O)NCc1ncnn1C (stereo not drawn) ?
Output line: -2.54

====

Protocol text: Human HepG2 cell viability assay in 384 well format
Format: toxicity, cell-based
Design: dose 125 nL, time 70.5 hour; concentration not given beside the values
Assay conditions: HepG2 cells, read-out: Inhibition
# Lookup of reported cytotoxicity at 70.5 h keyed by entry
Reply with the number, then its unit.

Compound	Result type	Result
CC(=O)c1cc2c(=O)[nH]c(=O)n(C)c2nc1C	cytotoxicity at 70.5 h	-9.65%
CCn1ccnc1CN1CCN(C(C)C(=O)N2CCCC2)CC1 (configuration not stated)	cytotoxicity at 70.5 h	-3.5%
Cc1sc2nc(CCN)nc(N(CCN(C)C)CC3CCCO3)c2c1C (configuration not stated)	cytotoxicity at 70.5 h	5.16%
COC[C@@H]1CC[C@H]2[C@H](CCN2C(=O)c2ccncc2F)O1	cytotoxicity at 70.5 h	-7.3%
CCn1ncc(S(=O)(=O)N[C@@H]2CC[C@@H](n3ccnc3C)[C@@H]2O)c1C	cytotoxicity at 70.5 h	-5.15%

Input line: Which cytotoxicity at 70.5 h reading was recorded for the compound Cc1ccc(N(C)CC(O)COCc2ccccc2)c(C)c1 (configuration not stated) ?
Output line: 12.5%

====

# Lookup of reported cytotoxicity at 70.5 h keyed by entry
Protocol text: Human HepG2 cell viability assay in 384 well format
Assay type: toxicity, cell-based
Design: dose 125 nL, time 70.5 hour; concentration not given beside the values
Assay conditions: HepG2 cells, read-out: Inhibition
Numeric answer only, unit % assumed.

Input line: Which cytotoxicity at 70.5 h reading was recorded for the compound Cc1cc(NCCc2cnccn2)nc(-c2ccccc2O)n1 ?
Output line: -12.4

Input line: Moving on to the next compound: CCc1cnc(N2CCOC(CCOC)C2)nc1 (configuration not stated)
Output line: -13.5

Input line: Moving on to the next compound: Cc1c(CN2CCc3[nH]cnc3C2C(=O)O)[nH]c2ccc(F)cc12 (configuration not stated)
Output line: -20.3

Input line: Moving on to the next compound: Cn1cc(NS(=O)(=O)c2ccc(F)c(F)c2)ccc1=O
Output line: -7.99

Input line: Moving on to the next compound: O=C(c1ccc(-n2cncn2)cc1)N1CCN(c2cnccn2)CC1
Output line: -9.5

Input line: Moving on to the next compound: O=C(c1ccc(F)cc1)N1C[C@H]2CCC[C@@]2(COCc2ccccn2)C1
Output line: -15.6

Input line: Moving on to the next compound: Cc1nonc1CNC(=O)C(C)Oc1ccccc1F (configuration not stated)
Output line: -7.96

Input line: Moving on to the next compound: CCCOCCN1CCC2(CC1)CC(=O)N(Cc1cc(F)cc(F)c1)C2
Output line: -3.73
